ASSAY_SYSTEM: T1, chimeric OX40 construct 1548: Human OX40 with mouse module 3 and domains 4A and 4B (aa 108-167) (human; mouse, UniProt P47741 104-165)
T1 construct: domain: module 3 and domains 4A and 4B; On 293-F cells; limits derived as for 1544
T1 sequence: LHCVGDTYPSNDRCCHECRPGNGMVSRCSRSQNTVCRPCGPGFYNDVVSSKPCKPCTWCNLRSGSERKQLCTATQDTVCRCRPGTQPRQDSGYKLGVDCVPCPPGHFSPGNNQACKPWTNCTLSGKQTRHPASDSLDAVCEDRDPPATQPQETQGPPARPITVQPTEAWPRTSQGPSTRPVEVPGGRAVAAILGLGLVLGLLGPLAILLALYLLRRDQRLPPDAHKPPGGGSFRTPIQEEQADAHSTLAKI
METHOD_DESCRIPTION: flow cytometry, transfected 293-F cells
VALUE_KIND: relative MFI compared to isotype control

Sample records with relative MFI compared to isotype control:
BINDER: anti-OX40 antibody 1524/1525 (antibody, V domains shown, Tested as IgG) VH: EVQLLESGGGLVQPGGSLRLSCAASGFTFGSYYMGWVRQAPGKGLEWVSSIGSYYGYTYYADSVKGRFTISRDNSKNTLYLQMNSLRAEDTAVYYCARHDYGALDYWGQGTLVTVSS VL: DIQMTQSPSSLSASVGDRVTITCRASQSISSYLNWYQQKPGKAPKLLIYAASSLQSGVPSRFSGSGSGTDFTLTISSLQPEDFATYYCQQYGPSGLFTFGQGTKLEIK
VALUE_KIND: relative MFI compared to isotype control
RECORDED_VALUE: 15.4

BINDER: anti-OX40 antibody 1482/1483 (antibody, V domains shown, Tested as IgG) VH: EVQLLESGGGLVQPGGSLRLSCAASGFTFSSYAMSWVRQAPGKGLEWVSYISYYSGYTYYADSVKGRFTISRDNSKNTLYLQMNSLRAEDTAVYYCARGYGYLDYWGQGTLVTVSS VL: DIQMTQSPSSLSASVGDRVTITCRASQSISSYLNWYQQKPGKAPKLLIYAASSLQSGVPSRFSGSGSGTDFTLTISSLQPEDFATYYCQQYGSLLTFGQGTKLEIK
VALUE_KIND: relative MFI compared to isotype control
RECORDED_VALUE: 1.1

Query: relative MFI compared to isotype control; subject: anti-OX40 antibody 1514/1515 (antibody, V domains shown, Tested as IgG) VH: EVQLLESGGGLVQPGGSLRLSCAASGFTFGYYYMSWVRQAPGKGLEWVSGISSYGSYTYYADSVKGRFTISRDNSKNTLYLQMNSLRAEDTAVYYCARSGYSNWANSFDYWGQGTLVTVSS VL: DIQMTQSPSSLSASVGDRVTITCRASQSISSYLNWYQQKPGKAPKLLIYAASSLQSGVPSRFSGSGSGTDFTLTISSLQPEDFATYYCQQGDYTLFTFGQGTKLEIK 17.2
